system: TRZAWR (Wheat, Winter, cv Riband); assay: Postemergence herbicidal evaluation; assay type: in vivo, Triticum aestivum; settings: postemergence, rate 0.0625 kg/ha
measured-parameter: TRZAWR herbicidal rating
Answers are plain numbers.

Here are 3 molecules together with their reported answers.
CC1SC(=Nc2cc(-n3c(=O)cc(C(F)(F)F)n(C)c3=O)c(F)cc2Cl)N(C)C1=O (stereo not shown) [Compound 9]
4.3
O=C1CSC(=Nc2cc(N3C(=O)C4=C(CCCC4)C3=O)c(F)cc2Cl)N1c1ccccc1 [Compound 3]
3.0
C=CCN1C(=O)C(CC(=O)NOC)SC1=Nc1cc(-n2c(=O)cc(C(F)(F)F)n(C)c2=O)c(F)cc1Cl (stereo not shown) [Compound 85]
4.5

Now let's try a different one.
Query: Write down the reported TRZAWR herbicidal rating of C=CCN1C(=O)C(CC(N)=O)SC1=Nc1cc(-n2c(=O)cc(C(F)(F)F)n(C)c2=O)c(F)cc1Cl (stereo not shown) [Compound 99] , test system: TRZAWR (Wheat, Winter, cv Riband).
Result: 5.5

Taken from patent US20020137929A1.
